- Assay target: Microtubule-associated protein tau (Homo sapiens) (UniProt P10636)
- Sequence (P10636 whole entry): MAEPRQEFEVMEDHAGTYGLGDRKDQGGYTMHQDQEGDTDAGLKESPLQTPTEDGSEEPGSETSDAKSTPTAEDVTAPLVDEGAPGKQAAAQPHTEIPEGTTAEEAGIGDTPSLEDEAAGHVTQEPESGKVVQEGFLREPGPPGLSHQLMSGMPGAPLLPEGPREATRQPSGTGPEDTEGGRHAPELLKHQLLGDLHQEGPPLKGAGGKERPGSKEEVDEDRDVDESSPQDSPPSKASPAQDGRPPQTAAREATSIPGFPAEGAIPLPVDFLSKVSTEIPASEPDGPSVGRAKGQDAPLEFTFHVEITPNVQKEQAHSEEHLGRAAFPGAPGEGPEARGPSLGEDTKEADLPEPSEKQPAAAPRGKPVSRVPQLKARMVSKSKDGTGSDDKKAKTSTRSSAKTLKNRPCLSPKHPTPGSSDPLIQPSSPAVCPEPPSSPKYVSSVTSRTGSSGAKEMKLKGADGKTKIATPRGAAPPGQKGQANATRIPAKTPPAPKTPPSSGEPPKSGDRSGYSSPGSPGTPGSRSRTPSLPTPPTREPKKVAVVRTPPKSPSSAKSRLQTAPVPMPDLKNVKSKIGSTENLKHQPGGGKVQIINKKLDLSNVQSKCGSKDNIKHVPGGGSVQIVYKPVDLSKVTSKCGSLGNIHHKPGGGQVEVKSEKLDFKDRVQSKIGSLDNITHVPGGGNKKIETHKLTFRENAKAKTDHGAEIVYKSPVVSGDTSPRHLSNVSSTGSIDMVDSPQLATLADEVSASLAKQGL
- Assay remarks: Binding affinity to human tau associated NFTs at 100 uM by fluorescence microscopy
Activity calls are given as the source filed them. The rule behind the calls is not given here.
Parameter measured: Activity

Take a look at these entries with their results.
Smiles notation: CC(=C(C#N)C#N)c1ccc2cc(N(C)CCF)ccc2c1
Activity: Active

Smiles notation: CC(C)(C)OC(=O)c1nn(-c2ccc(OCCF)cc2)c(=O)c2c(N)scc12
Activity: inactive

Smiles notation: CC(C)NC(=O)c1nn(-c2ccc(OCCCF)cc2)c(=O)c2c(N)scc12
Activity: inactive

Smiles notation: CC(C)NC(=O)c1nn(-c2ccc(OCCF)cc2)c(=O)c2c(NC(=O)OC(C)(C)C)scc12
Activity: inactive

Exercise: Give measured Activity for CC(C)NC(=O)c1nn(-c2ccc(F)cc2)c(=O)c2c(N)scc12 (Microtubule-associated protein tau (Homo sapiens) (UniProt P10636)).
Solution: Active
